# target-or-test-system: adenosine A1 receptor (Bos taurus, UniProt P28190)
# Construct: were homogenized with a Brinkman polytron and the membranes were collected by centrifugation; from tissue; host or cells: bovine caudate membranes
# Sequence (P28190 whole entry): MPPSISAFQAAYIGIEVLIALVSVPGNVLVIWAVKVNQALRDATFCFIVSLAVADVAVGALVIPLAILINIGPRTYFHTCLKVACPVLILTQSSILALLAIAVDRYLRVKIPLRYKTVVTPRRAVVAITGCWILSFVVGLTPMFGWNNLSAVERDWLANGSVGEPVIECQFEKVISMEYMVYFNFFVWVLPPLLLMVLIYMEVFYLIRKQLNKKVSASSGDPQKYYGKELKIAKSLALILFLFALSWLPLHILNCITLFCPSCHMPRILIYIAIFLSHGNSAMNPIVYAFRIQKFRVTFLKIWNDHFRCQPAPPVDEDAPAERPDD
# measurement-description: Receptor affinity (radioligand binding), A1, [3H]CHA
# Parameters: species or system bovine
# applied-conditions: radioligand binding, A2 Ki /A1 Ki
Would you kindly list Selectivity Ratio (A2 Ki /A1 Ki) for each of these molecules?
Give bare numbers.

molecule: Cn1cnc2c(N[C@H]3C[C@H]4C[C@@H]3c3ccc(O)cc34)ncnc21 (relative stereo)
value: 397
--
molecule: COc1nc2c(N[C@H]3C[C@H]4CC[C@@H]3C4)ncnc2n1C (relative stereo)
value: 43
--
molecule: CSc1nc2c(NC3CCCC3)ncnc2n1C
value: 145
--
molecule: CN(C)c1nc2c(N[C@H]3C[C@@H]4C[C@H]3C[C@@H]4O)ncnc2n1C (relative stereo)
value: 100
--
molecule: Cn1cnc2c(N[C@H]3C[C@H]4C[C@@H]3[C@H](O)C4)ncnc21 (relative stereo)
value: 120

Consider the additional molecule presented here.
Item "CN(C)c1nc2c(NC3CCCC3)ncnc2n1C" has what recorded Selectivity Ratio (A2 Ki /A1 Ki)?
219
